FYI, the data here is from paper PMC8034659.

assayed target: T1, TrfA wt (G254D/S267L, 33 kDa) (plasmid RK2, UniProt P07676 98-382, G254D;S267L)
T1 sequence: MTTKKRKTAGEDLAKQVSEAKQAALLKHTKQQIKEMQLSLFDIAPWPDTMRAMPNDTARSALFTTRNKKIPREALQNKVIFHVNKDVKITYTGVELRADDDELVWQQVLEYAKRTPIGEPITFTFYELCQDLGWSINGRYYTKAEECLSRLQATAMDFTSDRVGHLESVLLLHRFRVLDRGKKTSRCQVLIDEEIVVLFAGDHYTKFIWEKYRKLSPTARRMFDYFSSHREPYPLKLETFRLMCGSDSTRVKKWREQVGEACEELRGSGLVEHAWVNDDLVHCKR
experiment notes: UV crosslinking
measured quantity: binding result

53T (dsDNA, 5-Br-dU at T53 of top strand) DNA 1: CCTGCGGTATTGACACTTGAGGGGCGCGACTACTGACAGATGAGGGGCGCGATCCTTGACACTTGAGGGGCAGAGTGATGACAGATGAGGGGCGCACCTATTGACATTTGAGGGGCTGTCCACAGGCAG DNA 2: CTGCCTGTGGACAGCCCCTCAAATGTCAATAGGTGCGCCCCTCATCTGTCATCACTCTGCCCCTCAAGTGTCAAGGATCGCGCCCCTCATCTGTCAGTAGTCGCGCCCCTCAAGTGTCAATACCGCAGG = binds
58B (dsDNA, 5-Br-dU in bottom strand: CACTC[BrdU]GCCCC) DNA 1: CCTGCGGTATTGACACTTGAGGGGCGCGACTACTGACAGATGAGGGGCGCGATCCTTGACACTTGAGGGGCAGAGTGATGACAGATGAGGGGCGCACCTATTGACATTTGAGGGGCTGTCCACAGGCAG DNA 2: CTGCCTGTGGACAGCCCCTCAAATGTCAATAGGTGCGCCCCTCATCTGTCATCACTCTGCCCCTCAAGTGTCAAGGATCGCGCCCCTCATCTGTCAGTAGTCGCGCCCCTCAAGTGTCAATACCGCAGG = binds
69B (dsDNA, 5-Br-dU in bottom strand: CTCAAG[BrdU]GTCAAGG) DNA 1: CCTGCGGTATTGACACTTGAGGGGCGCGACTACTGACAGATGAGGGGCGCGATCCTTGACACTTGAGGGGCAGAGTGATGACAGATGAGGGGCGCACCTATTGACATTTGAGGGGCTGTCCACAGGCAG DNA 2: CTGCCTGTGGACAGCCCCTCAAATGTCAATAGGTGCGCCCCTCATCTGTCATCACTCTGCCCCTCAAGTGTCAAGGATCGCGCCCCTCATCTGTCAGTAGTCGCGCCCCTCAAGTGTCAATACCGCAGG = binds
